test: Volume of distribution at steady state in dog at 1 mg/kg, iv or 5 mg/kg, po; format: ADME, organism-based, Canis lupus familiaris; conditions: in vivo, read-out: Vdss
readout-name: Vd

{"chemical-structure": "Cc1ncn(C)c1-c1nnc([C@H]2CCC[C@@H](N(C)C(=O)c3cccc(Cl)c3)C2)[nH]1", "readout-name": "Vd", "result": "0.9 L/kg"}
{"chemical-structure": "Cc1ncn(C)c1NC(=O)[C@H]1CCC[C@@H](N(C)C(=O)c2cccc(C(F)(F)F)c2)C1", "readout-name": "Vd", "result": "1.2 L/kg"}
{"chemical-structure": "Cc1ncn(C)c1-c1nnc([C@@H]2C[C@H](N(C)C(=O)c3cccc(C(F)(F)F)c3)CCO2)[nH]1", "readout-name": "Vd", "result": "1.3 L/kg"}

---

target: CYP2C9 (Homo sapiens); assay: Inhibition of CYP2C9 (unknown origin) at 10 uM relative to control; type: ADME
Sequence (P11712 whole entry): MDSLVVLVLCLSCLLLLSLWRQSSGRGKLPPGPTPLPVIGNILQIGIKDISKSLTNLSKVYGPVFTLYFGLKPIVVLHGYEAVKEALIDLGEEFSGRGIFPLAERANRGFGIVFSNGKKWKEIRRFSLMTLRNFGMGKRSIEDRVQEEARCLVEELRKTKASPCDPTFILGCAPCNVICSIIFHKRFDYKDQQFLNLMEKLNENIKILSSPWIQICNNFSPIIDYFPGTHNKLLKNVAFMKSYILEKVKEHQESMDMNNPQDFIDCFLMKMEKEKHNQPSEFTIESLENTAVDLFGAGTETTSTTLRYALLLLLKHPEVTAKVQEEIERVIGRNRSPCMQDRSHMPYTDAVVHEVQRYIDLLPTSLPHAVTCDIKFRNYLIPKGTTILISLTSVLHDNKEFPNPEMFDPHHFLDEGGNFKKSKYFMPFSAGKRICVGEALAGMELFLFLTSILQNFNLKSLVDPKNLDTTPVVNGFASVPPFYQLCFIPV
inhibition at 10 µM reference
readout-name: inhibition at 10 µM (%)

{"chemical-structure": "Cc1ncn(C)c1NC(=O)[C@H]1CCC[C@@H](N(C)C(=O)c2cccc(C(F)(F)F)c2)C1", "result-number": 14}
{"chemical-structure": "Cc1ncn(C)c1-c1nnc([C@@H]2C[C@H](N(C)C(=O)c3cccc(C(F)(F)F)c3)CCO2)[nH]1", "result-number": 11}
{"chemical-structure": "Cc1ncn(C)c1-c1nnc([C@H]2CCC[C@@H](N(C)C(=O)c3cccc(Cl)c3)C2)[nH]1", "result-number": 0}

---

assay: Drug metabolism in mouse microsomes assessed as drug turnover at 20 uM measured after 30 mins by LCMS analysis; type: ADME, Microsome; conditions: read-out: Drug metabolism
Rule: measured metabolised at 0.5 h, 20 µM below 50% gets 1; anything equal to or greater than 50% gets -1.

{"chemical-structure": "Cc1ncn(CC(F)(F)F)c1NC(=O)[C@H]1CCC[C@@H](N(C)C(=O)c2cccc(OC(F)(F)F)c2)C1", "answer-label": -1}
{"chemical-structure": "Cc1ncn(C)c1-c1nnc([C@@H]2C[C@H](N(C)C(=O)c3cccc(Cl)c3)CCO2)[nH]1", "answer-label": 1}
{"chemical-structure": "Cc1ncn(CC(F)F)c1NC(=O)[C@H]1CCC[C@@H](N(C)C(=O)c2cccc(Cl)c2)C1", "answer-label": -1}
{"chemical-structure": "Cc1ncn(C)c1NC(=O)[C@H]1CCC[C@@H](N(C)C(=O)c2cccc(OC(F)(F)F)c2)C1", "answer-label": -1}
{"chemical-structure": "Cc1ncn(C)c1-c1nnc([C@H]2CCC[C@@H](N(C)C(=O)c3cccc(Cl)c3)C2)[nH]1", "answer-label": 1}
{"chemical-structure": "CN(C(=O)c1cccc(C(F)(F)F)c1)[C@@H]1CCO[C@H](c2nnc(-c3cnc4n3CCOC4)[nH]2)C1", "answer-label": 1}
{"chemical-structure": "Cc1ncn(C)c1-c1nnc([C@H]2CCC[C@@H](N(C)C(=O)c3cccc(C(F)(F)F)c3)C2)[nH]1", "answer-label": -1}
{"chemical-structure": "Cc1nc[nH]c1-c1nnc([C@H]2CCC[C@@H](N(C)C(=O)c3cccc(C(F)(F)F)c3)C2)[nH]1", "answer-label": 1}
{"chemical-structure": "Cc1ncn(CC2CC2)c1-c1nnc([C@@H]2C[C@H](N(C)C(=O)c3cccc(C(F)(F)F)c3)CCO2)[nH]1", "answer-label": -1}
{"chemical-structure": "Cc1ncn(CCN2CCOCC2)c1NC(=O)[C@H]1CCC[C@@H](N(C)C(=O)c2cccc(C(F)(F)F)c2)C1", "answer-label": -1}
{"chemical-structure": "Cc1ncn(CC#N)c1NC(=O)[C@H]1CCC[C@@H](N(C)C(=O)c2cccc(C(F)(F)F)c2)C1", "answer-label": -1}
{"chemical-structure": "CN(C(=O)c1cccc(Cl)c1)[C@@H]1CCO[C@H](c2nnc(-c3cnc4ccccn34)[nH]2)C1", "answer-label": -1}
{"chemical-structure": "CN(C(=O)c1cccc(C(F)(F)F)c1)[C@@H]1CCO[C@H](c2nnc(-c3cnc4n3CCC4)[nH]2)C1", "answer-label": 1}
{"chemical-structure": "Cc1ncn(C2CCC2)c1-c1nnc([C@@H]2C[C@H](N(C)C(=O)c3cccc(C(F)(F)F)c3)CCO2)[nH]1", "answer-label": 1}
{"chemical-structure": "Cc1ncc(-c2nnc([C@H]3CCC[C@@H](N(C)C(=O)c4cccc(C(F)(F)F)c4)C3)[nH]2)n1C", "answer-label": -1}
{"chemical-structure": "Cc1ncn(C)c1-c1nnc([C@@H]2C[C@H](N(C)C(=O)c3cccc(OC(F)(F)F)c3)CCO2)[nH]1", "answer-label": 1}
{"chemical-structure": "Cc1ncn(CC(F)(F)F)c1NC(=O)[C@H]1CCC[C@@H](N(C)C(=O)c2cccc(C(F)(F)F)c2)C1", "answer-label": -1}

---

assay: Drug metabolism in human microsomes assessed as drug turnover at 20 uM measured after 30 mins by LCMS analysis; format: ADME, Microsome; conditions: read-out: Drug metabolism
metabolised at 0.5 h, 20 µM reference

{"chemical-structure": "Cc1ncn(CC2CC2)c1-c1nnc([C@@H]2C[C@H](N(C)C(=O)c3cccc(C(F)(F)F)c3)CCO2)[nH]1", "metabolised at 0.5 h, 20 µM": "69%"}
{"chemical-structure": "Cc1ncn(CC2CC2)c1NC(=O)[C@H]1CCC[C@@H](N(C)C(=O)c2cccc(C(F)(F)F)c2)C1", "metabolised at 0.5 h, 20 µM": "72%"}
{"chemical-structure": "CN(C(=O)c1cccc(C(F)(F)F)c1)[C@@H]1CCO[C@H](c2nnc(-c3cnc4n3CCC4)[nH]2)C1", "metabolised at 0.5 h, 20 µM": "18%"}
{"chemical-structure": "Cc1ncn(C)c1NC(=O)[C@H]1CCC[C@@H](N(C)C(=O)c2cccc(OC(F)(F)F)c2)C1", "metabolised at 0.5 h, 20 µM": "42%"}
{"chemical-structure": "Cc1ncn(C)c1-c1nnc([C@H]2CCC[C@@H](N(C)C(=O)c3cccc(Cl)c3)C2)[nH]1", "metabolised at 0.5 h, 20 µM": "26%"}
{"chemical-structure": "Cc1ncn(CC(F)F)c1-c1nnc([C@H]2CCC[C@@H](N(C)C(=O)c3cccc(C(F)(F)F)c3)C2)[nH]1", "metabolised at 0.5 h, 20 µM": "90%"}
{"chemical-structure": "Cc1ncn(C)c1NC(=O)[C@H]1CCC[C@@H](N(C)C(=O)c2cccc(C(F)(F)F)c2)C1", "metabolised at 0.5 h, 20 µM": "32%"}
{"chemical-structure": "Cc1ncn(C)c1-c1nnc([C@@H]2C[C@H](N(C)C(=O)c3cccc(C(F)(F)F)c3)CCO2)[nH]1", "metabolised at 0.5 h, 20 µM": "14%"}
{"chemical-structure": "Cc1ncn(CC#N)c1NC(=O)[C@H]1CCC[C@@H](N(C)C(=O)c2cccc(C(F)(F)F)c2)C1", "metabolised at 0.5 h, 20 µM": "26%"}
{"chemical-structure": "Cc1ncn(CCN2CCOCC2)c1NC(=O)[C@H]1CCC[C@@H](N(C)C(=O)c2cccc(C(F)(F)F)c2)C1", "metabolised at 0.5 h, 20 µM": "38%"}
{"chemical-structure": "CN(C(=O)c1cccc(C(F)(F)F)c1)[C@@H]1CCC[C@H](c2nnc(-c3cnc4n3CCOC4)[nH]2)C1", "metabolised at 0.5 h, 20 µM": "84%"}
{"chemical-structure": "Cc1ncn(C(C)C)c1NC(=O)[C@H]1CCC[C@@H](N(C)C(=O)c2cccc(C(F)(F)F)c2)C1", "metabolised at 0.5 h, 20 µM": "48%"}
{"chemical-structure": "Cc1ncn(C)c1-c1nnc([C@@H]2C[C@H](N(C)C(=O)c3cccc(Cl)c3)CCO2)[nH]1", "metabolised at 0.5 h, 20 µM": "7%"}
{"chemical-structure": "Cc1ncn(CC(F)F)c1NC(=O)[C@H]1CCC[C@@H](N(C)C(=O)c2cccc(C(F)(F)F)c2)C1", "metabolised at 0.5 h, 20 µM": "58%"}
{"chemical-structure": "Cc1nc[nH]c1-c1nnc([C@H]2CCC[C@@H](N(C)C(=O)c3cccc(C(F)(F)F)c3)C2)[nH]1", "metabolised at 0.5 h, 20 µM": "13%"}
{"chemical-structure": "Cc1ncn(C2CCC2)c1-c1nnc([C@@H]2C[C@H](N(C)C(=O)c3cccc(C(F)(F)F)c3)CCO2)[nH]1", "metabolised at 0.5 h, 20 µM": "82%"}

---

assay: Drug metabolism in rat microsomes assessed as drug turnover at 20 uM measured after 30 mins by LCMS analysis; type: ADME, Microsome; conditions: read-out: Drug metabolism
Rule: measured metabolised at 0.5 h, 20 µM below 20% gets rule met; anything equal to or greater than 20% gets rule not met.

{"chemical-structure": "Cc1ncn(CC#N)c1NC(=O)[C@H]1CCC[C@@H](N(C)C(=O)c2cccc(C(F)(F)F)c2)C1", "answer-label": "rule not met"}
{"chemical-structure": "Cc1ncn(CC2CC2)c1NC(=O)[C@H]1CCC[C@@H](N(C)C(=O)c2cccc(C(F)(F)F)c2)C1", "answer-label": "rule not met"}
{"chemical-structure": "CN(C(=O)c1cccc(C(F)(F)F)c1)[C@@H]1CCO[C@H](c2nnc(-c3cnc4n3CCC4)[nH]2)C1", "answer-label": "rule met"}
{"chemical-structure": "Cc1ncn(C)c1NC(=O)[C@H]1CCC[C@@H](N(C)C(=O)c2cccc(OC(F)(F)F)c2)C1", "answer-label": "rule not met"}
{"chemical-structure": "CN(C(=O)c1cccc(Cl)c1)[C@@H]1CCO[C@H](c2nnc(-c3cnc4ccccn34)[nH]2)C1", "answer-label": "rule not met"}
